Biological target: T1, purified human CD117 ectodomain (R&D Systems #332-SR) (human, UniProt P10721 26-524)
T1 construct: extracellular domain; Bought protein; also called c-kit; purified recombinant human CD117 ectodomain
T1 sequence (P10721 26-524): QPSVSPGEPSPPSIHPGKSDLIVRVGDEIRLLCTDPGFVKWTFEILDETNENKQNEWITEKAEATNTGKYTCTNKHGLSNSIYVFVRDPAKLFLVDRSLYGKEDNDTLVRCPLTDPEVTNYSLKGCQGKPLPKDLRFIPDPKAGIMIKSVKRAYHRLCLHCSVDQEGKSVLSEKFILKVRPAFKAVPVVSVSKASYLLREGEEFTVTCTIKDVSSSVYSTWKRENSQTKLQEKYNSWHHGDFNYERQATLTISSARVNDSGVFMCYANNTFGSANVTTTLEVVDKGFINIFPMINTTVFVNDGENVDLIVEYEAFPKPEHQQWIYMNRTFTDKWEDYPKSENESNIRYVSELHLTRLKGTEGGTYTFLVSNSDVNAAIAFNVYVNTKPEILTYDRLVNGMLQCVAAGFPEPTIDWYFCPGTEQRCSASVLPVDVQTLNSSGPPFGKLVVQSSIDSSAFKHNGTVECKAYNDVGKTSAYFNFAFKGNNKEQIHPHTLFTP
Assay: BLI, purified IgG on sensor, soluble ectodomain; apparent monovalent
Each entry below carries its recorded Kd.

binder	Kd (nM)
HC-25/LC-25 (Ab25) (antibody, IgG1, V domains shown, From rat immunization/hybridoma; purified IgG in BLI; also called 025) VH: QIQLVQSGPELKKPGESVKISCKASGYTFTDYAIHWVKQAPGQGLRWMAWINTETGKPTYADDFKGRFVFSLEASASTAHLQISNLKNEDTATFFCAGGSHWFAYWGQGTLVTVSS VL: SYELIQPPSASVTLENTVSITCSGDELSNKYAHWYQQKPDKTILEVIYNDSERPSGISDRFSGSSSGTTAILTIRDAQAEDEADYYCLSTFSDDDLPIFGGGTKLTVL	0.52
HC-1/LC-1 (Ab1) (antibody, IgG1, V domains shown, Purified IgG (IgG1); also called 001; CK6 derivative Ab1) VH: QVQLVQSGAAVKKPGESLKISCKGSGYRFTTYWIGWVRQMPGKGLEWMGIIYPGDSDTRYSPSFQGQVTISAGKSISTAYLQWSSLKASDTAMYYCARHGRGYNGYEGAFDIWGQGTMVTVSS VL: AIQLTQSPSSLSASVGDRVTITCRASQGVSSALAWYQQKPGKAPKLLIYDASSLESGVPSRFSGSGSGTDFTLTISSLQPEDFATYYCQQFNSYPLTFGGGTKVEIK	2.81
